- TESTED_ON: CHUK (human)
- ASSAY_EXPLANATION: radiometric filter-binding kinase assay, Kinase HotSpot
- CONDITION_DETAILS: compound 0.5 µM; ATP 10 µM
PARAMETER: residual activity (%)
Entry rule: numbers only, all in %.

CC#CC(=O)Nc1cc2c(Nc3ccc(F)c(Cl)c3)ncnc2cn1    92.1
Cc1ccc(NC2=CC(=O)c3sc(C)nc3C2=O)cc1    91.9
CO[C@H]1CC2CC[C@@H](C)[C@@](O)(O2)C(=O)C(=O)N2CCCC[C@H]2C(=O)OC([C@H](C)C[C@@H]2CC[C@@H](O)[C@H](OC)C2)CC(=O)[C@H](C)/C=C(\C)[C@@H](O)[C@@H](OC)C(=O)[C@H](C)C[C@H](C)/C=C/C=C/C=C/1C (some centres not stated)    110
c1ccc(-c2n[nH]c3c2oc2ccccc23)cc1    92.3
CCN(CC)CCNC(=O)c1c(C)[nH]c(/C=C2\C(=O)Nc3ccc(Cl)cc32)c1C    102
Cc1[nH]c(/C=C2\C(=O)Nc3ccc(S(=O)(=O)N(C)c4cccc(Cl)c4)cc32)c(C)c1C(=O)N1CCN(C)CC1    100
O=c1cc(N2CCOCC2)oc2c1ccc1ccccc12    93.4
CNc1cc2c(Nc3cccc(Br)c3)ncnc2cn1    99
COc1ccc(COc2ccc(Cc3cnc(N)nc3N)cc2OC)cc1    94.7
O=C1NC(=O)c2c1c1c3ccccc3n3c1c1c2c2ccccc2n1C1CCC3O1    106

residual activity for CHUK (human) with input "Nc1ncnc2c1c(-c1ccc(Oc3ccccc3)cc1)cn2C1CCCC1" equals 99.7

residual activity for CHUK (human) with input "O=C(Nc1cccc(Nc2nccc(Nc3cccc(C(F)(F)F)c3)n2)c1)C1CC1" equals 95.7

###

- TESTED_ON: CAMK1 (human) (UniProt Q14012)
- Sequence (Q14012 whole entry, looked up): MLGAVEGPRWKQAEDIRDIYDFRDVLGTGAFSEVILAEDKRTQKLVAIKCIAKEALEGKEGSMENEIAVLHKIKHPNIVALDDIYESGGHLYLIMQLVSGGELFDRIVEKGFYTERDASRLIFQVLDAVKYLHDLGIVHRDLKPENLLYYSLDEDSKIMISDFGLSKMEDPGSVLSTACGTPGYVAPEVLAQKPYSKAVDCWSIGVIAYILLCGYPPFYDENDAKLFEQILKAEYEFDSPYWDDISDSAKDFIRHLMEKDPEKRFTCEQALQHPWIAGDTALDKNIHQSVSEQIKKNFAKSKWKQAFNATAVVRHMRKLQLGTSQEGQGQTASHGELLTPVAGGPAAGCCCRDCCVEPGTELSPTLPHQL
- ASSAY_EXPLANATION: radiometric filter-binding kinase assay, Kinase HotSpot
- CONDITION_DETAILS: compound 0.5 µM; ATP 10 µM
Below: a set of entries, each annotated with reported residual activity.
Remember to put the unit after the number in your answer.

Use these answered entries as a reference point.
N#C/C(=C(/N)Sc1ccc(N)cc1)c1ccccc1C(F)(F)F    91.6%
O=C(Nc1cccc(Nc2nccc(Nc3cccc(C(F)(F)F)c3)n2)c1)C1CC1    95.5%
CO[C@H]1CC2CC[C@@H](C)[C@@](O)(O2)C(=O)C(=O)N2CCCC[C@H]2C(=O)OC([C@H](C)C[C@@H]2CC[C@@H](O)[C@H](OC)C2)CC(=O)[C@H](C)/C=C(\C)[C@@H](O)[C@@H](OC)C(=O)[C@H](C)C[C@H](C)/C=C/C=C/C=C/1C (stereo not given in full)    111%
Cc1ccc(NC2=CC(=O)c3sc(C)nc3C2=O)cc1    87.6%
N#CC(C#N)=C(N)/C(C#N)=C/c1ccc(O)cc1    97.2%
c1ccc(-c2n[nH]c3c2oc2ccccc23)cc1    85.2%
Cc1ccc(Nc2nccc(N(C)c3ccc4c(C)n(C)nc4c3)n2)cc1S(N)(=O)=O    87.4%
CC#CC(=O)Nc1cc2c(Nc3ccc(F)c(Cl)c3)ncnc2cn1    97.9%
Nc1cccc(-c2cc3c(Oc4cccc(O)c4)ncnc3[nH]2)c1    112%
CCC(=O)Nc1ccc2ncnc(Nc3cccc(Br)c3)c2c1    88.9%

residual activity recorded for this compound, "CCN(CC)C(=O)c1ccc(Nc2nc(OCC3CCCCC3)c3nc[nH]c3n2)cc1" , is 85.6%

residual activity recorded for this compound, "COc1ccc(COc2ccc(Cc3cnc(N)nc3N)cc2OC)cc1" , is 103%

residual activity recorded for this compound, "O=C1NC(=O)C(c2cn(CCCn3ccnc3)c3ccccc23)=C1Nc1ccccc1" , is 106%

###

- TESTED_ON: NUAK2 (human) (UniProt Q9H093)
- Sequence (Q9H093 whole entry, looked up): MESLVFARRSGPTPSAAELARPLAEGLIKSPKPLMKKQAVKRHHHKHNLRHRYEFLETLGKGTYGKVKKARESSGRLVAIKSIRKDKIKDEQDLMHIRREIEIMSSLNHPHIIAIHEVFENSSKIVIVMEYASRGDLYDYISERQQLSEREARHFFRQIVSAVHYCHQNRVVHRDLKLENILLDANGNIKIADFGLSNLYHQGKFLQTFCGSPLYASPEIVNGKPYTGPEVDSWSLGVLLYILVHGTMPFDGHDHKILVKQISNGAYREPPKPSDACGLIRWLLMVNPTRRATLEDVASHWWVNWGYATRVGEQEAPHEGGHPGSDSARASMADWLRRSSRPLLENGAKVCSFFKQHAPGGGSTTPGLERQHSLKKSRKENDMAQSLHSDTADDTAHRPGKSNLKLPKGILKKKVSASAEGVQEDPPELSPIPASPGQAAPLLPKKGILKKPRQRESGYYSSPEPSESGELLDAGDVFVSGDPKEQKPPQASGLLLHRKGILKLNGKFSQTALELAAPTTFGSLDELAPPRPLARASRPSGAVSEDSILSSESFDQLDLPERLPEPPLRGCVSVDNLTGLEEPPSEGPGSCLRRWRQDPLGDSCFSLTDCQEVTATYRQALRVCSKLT
- ASSAY_EXPLANATION: radiometric filter-binding kinase assay, Kinase HotSpot
- CONDITION_DETAILS: compound 0.5 µM; ATP 10 µM
Below: a set of entries, each annotated with reported residual activity.
Entry rule: numbers only, all in %.

Use these answered entries as a reference point.
O=C1Nc2ccc(Cl)cc2/C1=C/c1cc(Cl)c(O)c(Cl)c1    78.7
CCN(CC)C(=O)c1ccc(Nc2nc(OCC3CCCCC3)c3nc[nH]c3n2)cc1    23.1
Nc1ncnc2[nH]nc(Nc3ccc(F)cc3)c12    90.4
CNc1cc2c(Nc3cccc(Br)c3)ncnc2cn1    85
Cc1[nH]c(/C=C2\C(=O)Nc3ccc(S(=O)(=O)N(C)c4cccc(Cl)c4)cc32)c(C)c1C(=O)N1CCN(C)CC1    61.9

residual activity recorded for this compound, "Cc1ccc(Nc2nccc(N(C)c3ccc4c(C)n(C)nc4c3)n2)cc1S(N)(=O)=O" , is 93.8

residual activity recorded for this compound, "Cc1ccc(S(=O)(=O)/C=C/C#N)cc1" , is 88.4

residual activity recorded for this compound, "O=C1NC(=O)c2c1c1c3ccccc3n3c1c1c2c2ccccc2n1C1CCC3O1" , is 52

residual activity recorded for this compound, "COc1ccc(COc2ccc(Cc3cnc(N)nc3N)cc2OC)cc1" , is 98.1

residual activity recorded for this compound, "Nc1ccc2ncnc(NCCc3ccc(Oc4ccccc4)cc3)c2c1" , is 112

residual activity recorded for this compound, "O=C1NC(=O)/C(=C/c2ccc3c(c2)OC(F)(F)O3)S1" , is 74.8

###

- TESTED_ON: IRAK1 (human)
- ASSAY_EXPLANATION: radiometric filter-binding kinase assay, Kinase HotSpot
- CONDITION_DETAILS: compound 0.5 µM; ATP 10 µM
Below: a set of entries, each annotated with reported residual activity.
Entry rule: numbers only, all in %.

c1ccc(-c2n[nH]c3c2oc2ccccc23)cc1    98
Nc1ccc2ncnc(NCCc3ccc(Oc4ccccc4)cc3)c2c1    107
CNc1cc2c(Nc3cccc(Br)c3)ncnc2cn1    85.2

residual activity for IRAK1 (human) with input "O=S(=O)(c1cccc2cnccc12)N1CCCNCC1" equals 86.2

residual activity for IRAK1 (human) with input "O=C1NC(=O)C(c2cn(CCCn3ccnc3)c3ccccc23)=C1Nc1ccccc1" equals 118

###

- TESTED_ON: UniProtKB Q13188
- Sequence (Q13188 whole entry, looked up): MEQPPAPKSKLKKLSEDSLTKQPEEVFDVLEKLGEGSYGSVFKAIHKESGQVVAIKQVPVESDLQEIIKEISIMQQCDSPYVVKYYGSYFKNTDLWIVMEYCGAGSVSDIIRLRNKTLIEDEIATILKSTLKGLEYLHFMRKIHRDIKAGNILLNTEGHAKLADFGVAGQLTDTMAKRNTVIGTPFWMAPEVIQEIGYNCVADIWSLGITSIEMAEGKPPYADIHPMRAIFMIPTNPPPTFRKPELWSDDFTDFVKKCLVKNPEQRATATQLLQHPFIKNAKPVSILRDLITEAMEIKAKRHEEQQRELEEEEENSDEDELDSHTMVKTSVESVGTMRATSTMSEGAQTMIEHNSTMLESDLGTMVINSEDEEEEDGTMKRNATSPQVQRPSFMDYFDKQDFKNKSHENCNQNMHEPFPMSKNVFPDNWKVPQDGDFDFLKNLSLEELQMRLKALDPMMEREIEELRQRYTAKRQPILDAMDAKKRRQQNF
- ASSAY_EXPLANATION: radiometric filter-binding kinase assay, Kinase HotSpot
- CONDITION_DETAILS: compound 0.5 µM; ATP 10 µM
PARAMETER: residual activity (%)
Entry rule: numbers only, all in %.

Use these answered entries as a reference point.
O=C1NC(=O)C(c2cn(CCCn3ccnc3)c3ccccc23)=C1Nc1ccccc1    52
CNC(=O)c1cc(Oc2ccc(NC(=O)Nc3ccc(Cl)c(C(F)(F)F)c3)cc2)ccn1    96.9
CC#CC(=O)Nc1cc2c(Nc3ccc(F)c(Cl)c3)ncnc2cn1    106
O=c1cc(N2CCOCC2)oc2c1ccc1ccccc12    99.1
O=C1Nc2ccc(Cl)cc2/C1=C/c1cc(Cl)c(O)c(Cl)c1    31.6
CCOC(=O)c1c(C)[nH]c(/C=C2\C(=O)Nc3ccccc32)c1C    73.7
CO[C@H]1CC2CC[C@@H](C)[C@@](O)(O2)C(=O)C(=O)N2CCCC[C@H]2C(=O)OC([C@H](C)C[C@@H]2CC[C@@H](O)[C@H](OC)C2)CC(=O)[C@H](C)/C=C(\C)[C@@H](O)[C@@H](OC)C(=O)[C@H](C)C[C@H](C)/C=C/C=C/C=C/1C (stereo partly specified)    105
CCN(CC)C(=O)c1ccc(Nc2nc(OCC3CCCCC3)c3nc[nH]c3n2)cc1    62.1
Nc1ncnc2[nH]nc(Nc3ccc(F)cc3)c12    90.8
CCN(CC)CCNC(=O)c1c(C)[nH]c(/C=C2\C(=O)Nc3ccc(F)cc32)c1C    24.8

residual activity for UniProtKB Q13188 with input "Nc1cccc(-c2cc3c(Oc4cccc(O)c4)ncnc3[nH]2)c1" equals 109

residual activity for UniProtKB Q13188 with input "COc1cc2ncnc(Nc3cccc(Cl)c3)c2cc1OC" equals 124

###

- TESTED_ON: UniProt:P29376
- Sequence (P29376 whole entry, looked up): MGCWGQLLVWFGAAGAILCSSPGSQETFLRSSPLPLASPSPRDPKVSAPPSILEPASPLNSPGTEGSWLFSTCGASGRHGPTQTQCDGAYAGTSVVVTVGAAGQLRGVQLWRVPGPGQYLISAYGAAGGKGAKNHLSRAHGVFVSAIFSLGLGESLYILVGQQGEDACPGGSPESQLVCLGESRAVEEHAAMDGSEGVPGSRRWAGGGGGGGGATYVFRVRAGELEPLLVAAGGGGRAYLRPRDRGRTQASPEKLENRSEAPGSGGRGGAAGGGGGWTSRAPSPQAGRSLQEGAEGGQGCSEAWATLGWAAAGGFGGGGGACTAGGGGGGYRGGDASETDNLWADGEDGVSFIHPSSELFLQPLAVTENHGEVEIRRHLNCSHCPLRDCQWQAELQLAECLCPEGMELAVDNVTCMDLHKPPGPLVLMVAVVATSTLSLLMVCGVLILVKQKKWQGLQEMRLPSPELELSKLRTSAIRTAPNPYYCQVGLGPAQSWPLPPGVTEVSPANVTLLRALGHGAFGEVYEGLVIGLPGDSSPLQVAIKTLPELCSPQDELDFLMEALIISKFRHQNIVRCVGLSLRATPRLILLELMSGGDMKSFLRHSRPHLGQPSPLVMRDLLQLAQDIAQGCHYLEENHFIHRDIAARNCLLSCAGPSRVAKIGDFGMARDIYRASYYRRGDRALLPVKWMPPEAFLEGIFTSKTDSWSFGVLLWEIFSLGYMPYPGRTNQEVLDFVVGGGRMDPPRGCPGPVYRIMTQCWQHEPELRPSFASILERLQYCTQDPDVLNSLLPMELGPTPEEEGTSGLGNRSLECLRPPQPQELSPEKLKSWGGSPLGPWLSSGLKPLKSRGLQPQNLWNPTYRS
- ASSAY_EXPLANATION: radiometric filter-binding kinase assay, Kinase HotSpot
- CONDITION_DETAILS: compound 0.5 µM; ATP 10 µM
In plain terms, low residual activity, meaning strictly below 90%, gives true (1), and everything else gives false (0).

Past entries and their recorded results:
CC#CC(=O)Nc1cc2c(Nc3ccc(F)c(Cl)c3)ncnc2cn1    false (0)
COc1ccc2c(c[n+](C)c3c4cc5c(cc4ccc23)OCO5)c1OC    false (0)
Cc1[nH]c(/C=C2\C(=O)Nc3ccc(S(=O)(=O)N(C)c4cccc(Cl)c4)cc32)c(C)c1C(=O)N1CCN(C)CC1    true (1)

Task item: Is the reported residual activity for "O=S(=O)(c1cccc2cnccc12)N1CCCNCC1" strictly below 90%?
Reply: false (0)

Task item: Is the reported residual activity for "Cc1ccc(Nc2nccc(N(C)c3ccc4c(C)n(C)nc4c3)n2)cc1S(N)(=O)=O" strictly below 90%?
Reply: true (1)

Task item: Is the reported residual activity for "Nc1ccc2ncnc(NCCc3ccc(Oc4ccccc4)cc3)c2c1" strictly below 90%?
Reply: false (0)

Task item: Is the reported residual activity for "CC(C)N(CCC(=O)c1ccc2ccccc2c1)Cc1ccccc1" strictly below 90%?
Reply: false (0)

Task item: Is the reported residual activity for "COc1cc2ncnc(Nc3cccc(Cl)c3)c2cc1OC" strictly below 90%?
Reply: true (1)

Task item: Is the reported residual activity for "O=C1NC(=O)C(c2cn(CCCn3ccnc3)c3ccccc23)=C1Nc1ccccc1" strictly below 90%?
Reply: false (0)

Task item: Is the reported residual activity for "Nc1ncnc2c1c(-c1ccc(Oc3ccccc3)cc1)cn2C1CCCC1" strictly below 90%?
Reply: true (1)
